- targetOfAssay: T1, AS519 VHH (camel-derived)
- T1 construct: One of the 10 different camel-derived nanobodies; not shown: His tag (VHH-His)
- T1 sequence (VHH, as listed by the source): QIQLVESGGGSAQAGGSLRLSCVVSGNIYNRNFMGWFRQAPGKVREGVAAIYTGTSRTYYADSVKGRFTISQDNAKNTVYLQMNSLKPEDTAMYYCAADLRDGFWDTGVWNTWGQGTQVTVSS
- assayExplanation: indirect ELISA, VHH coated

binder	binding result
R166.E7 (antibody, V domains shown, Rabbit monoclonal; also called clone R166.E7) VH: QSVEESGGRLVTPGTPLTLTCTVSGFSLSSFAMSWVRQAPGKGLEWIGIIYTGGTRDYATWAKGRFTISKTSTTVDLKMTSPTTEDTATYFCARDRSPDYSAAFNLWGQGTLVTVSS VL: IVMTQTPSSKSVPVGDTVTINCQASESVYSNNHLAWFQQKPGQPPKLLIYSASTLESGVPSRFKGSGSGTQFTLTISGVQCDDAATYYCAGYKSSDTDGTSFGGGTEVVVKG	binds
